B1: library; numbered along this chain (parent)
chain: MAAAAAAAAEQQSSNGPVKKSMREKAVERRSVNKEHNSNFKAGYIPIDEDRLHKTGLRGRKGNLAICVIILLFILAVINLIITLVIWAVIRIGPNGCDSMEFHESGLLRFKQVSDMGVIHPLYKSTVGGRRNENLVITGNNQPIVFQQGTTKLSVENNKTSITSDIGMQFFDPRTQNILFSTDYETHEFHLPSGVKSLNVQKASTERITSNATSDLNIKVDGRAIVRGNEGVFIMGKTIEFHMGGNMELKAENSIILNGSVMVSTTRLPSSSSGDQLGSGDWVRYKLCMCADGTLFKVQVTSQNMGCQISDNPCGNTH

- Variants of: B1
- measurement.notes: SGCB cell-surface expression functional score (HA stain, bin4 vs bin1, normalised to synonymous) (log10 ratio); higher = more cell-surface SGCB (functional)
Parameter: SGCB cell-surface expression functional score (log10). Scope: all listed entries.
quantity.name: SGCB cell-surface expression functional score (log10)

{"mutation.descriptor": "N157H", "recorded.result": 0.06}
{"mutation.descriptor": "I47T", "recorded.result": 0.58}
{"mutation.descriptor": "I239E", "recorded.result": 0}
{"mutation.descriptor": "M116Q", "recorded.result": -1.26}
{"mutation.descriptor": "G96I", "recorded.result": -1.54}
{"mutation.descriptor": "S161F", "recorded.result": -0.36}
{"mutation.descriptor": "M305N", "recorded.result": -1.05}
{"mutation.descriptor": "T83F", "recorded.result": -0.77}
{"mutation.descriptor": "D98R", "recorded.result": -0.16}
{"mutation.descriptor": "R284I", "recorded.result": -0.39}
{"mutation.descriptor": "P94T", "recorded.result": -0.07}
{"mutation.descriptor": "D281V", "recorded.result": -0.16}
{"mutation.descriptor": "A42C", "recorded.result": 0.21}
{"mutation.descriptor": "F73K", "recorded.result": 0.54}
{"mutation.descriptor": "L268T", "recorded.result": -0.02}
{"mutation.descriptor": "L179V", "recorded.result": -0.27}
{"mutation.descriptor": "F180Q", "recorded.result": -1.66}
{"mutation.descriptor": "A203E", "recorded.result": -0.01}
{"mutation.descriptor": "R130L", "recorded.result": 0.65}
{"mutation.descriptor": "S105E", "recorded.result": -0.29}
{"mutation.descriptor": "N157P", "recorded.result": 0.01}
{"mutation.descriptor": "V232K", "recorded.result": -1.43}
{"mutation.descriptor": "K152H", "recorded.result": -0.48}
{"mutation.descriptor": "S271Y", "recorded.result": -0.26}
{"mutation.descriptor": "G236R", "recorded.result": -1.3}
{"mutation.descriptor": "P313L", "recorded.result": -0.14}
{"mutation.descriptor": "S214Y", "recorded.result": -1.74}
{"mutation.descriptor": "S105N", "recorded.result": -0.63}
{"mutation.descriptor": "G278C", "recorded.result": 0.13}
{"mutation.descriptor": "S254Y", "recorded.result": 0.7}
{"mutation.descriptor": "S164Y", "recorded.result": -1.05}
{"mutation.descriptor": "V136I", "recorded.result": 0.32}
{"mutation.descriptor": "I66N", "recorded.result": 0.47}
{"mutation.descriptor": "Y184L", "recorded.result": -1.63}
{"mutation.descriptor": "P17S", "recorded.result": 0.12}
{"mutation.descriptor": "G117P", "recorded.result": -1.21}
{"mutation.descriptor": "H242Q", "recorded.result": 0.68}
{"mutation.descriptor": "N246A", "recorded.result": 0.82}
{"mutation.descriptor": "S260A", "recorded.result": 0.52}
{"mutation.descriptor": "E28M", "recorded.result": 0.57}
{"mutation.descriptor": "G117R", "recorded.result": -0.86}
{"mutation.descriptor": "I178Y", "recorded.result": -1.19}
{"mutation.descriptor": "V18M", "recorded.result": -0.08}
{"mutation.descriptor": "S279D", "recorded.result": 0.24}
{"mutation.descriptor": "A9F", "recorded.result": 0.04}
{"mutation.descriptor": "V32Q", "recorded.result": -0.03}
